biological target: UniProt P24941; assay: Enzyme Assay; conditions: concentration not given here
Classification field: True = inhibition at or over 80%; False = inhibition under 80%.

Ask: hey, is inhibition for this one >= 80%? O=S(=O)(Nc1ccc2[nH]nc(-c3ccccc3)c2c1)c1ccc(F)c(F)c1
Reply: False

Ask: hey, is inhibition for this one >= 80%? CS(=O)(=O)c1ccccc1S(=O)(=O)Nc1ccc2[nH]nc(-c3cc4ccccc4o3)c2c1
Reply: True

Ask: hey, is inhibition for this one >= 80%? CS(=O)(=O)c1ccccc1S(=O)(=O)Nc1ccc2[nH]nc(-c3cc(Br)cc(Br)c3)c2c1
Reply: False

Ask: hey, is inhibition for this one >= 80%? COc1ccc2[nH]c(-c3n[nH]c4ccc(NS(=O)(=O)c5ccccc5S(C)(=O)=O)cc34)cc2c1
Reply: True

Ask: hey, is inhibition for this one >= 80%? Cc1ccccc1S(=O)(=O)Nc1ccc2[nH]nc(-c3ccccc3)c2c1
Reply: False

Ask: hey, is inhibition for this one >= 80%? CS(=O)(=O)c1ccccc1S(=O)(=O)Nc1ccc2[nH]nc(Nc3ccccc3)c2c1
Reply: True

Ask: hey, is inhibition for this one >= 80%? CS(=O)(=O)c1ccccc1S(=O)(=O)Nc1ccc2[nH]nc(-c3ccc(F)cc3F)c2c1
Reply: True

====

I'd be grateful if you could share measured inhibition for these entries.
target: CDK2 (UniProt P24941); assay: Enzyme Assay; settings: concentration not given here
I only need the number, in %, no unit after it.

Ask: Recorded inhibition for Nc1ccc(S(=O)(=O)Nc2ccc3[nH]nc(-c4ccccc4)c3c2)cc1 with CDK2 (UniProt P24941), please?
Reply: 70

Ask: Recorded inhibition for O=S(=O)(Nc1ccc2[nH]nc(-c3ccccc3)c2c1)c1cccc2cccnc12 with CDK2 (UniProt P24941), please?
Reply: 99

Ask: Recorded inhibition for CS(=O)(=O)c1ccccc1S(=O)(=O)Nc1ccc2[nH]nc(-c3ccc(N)cc3)c2c1 with CDK2 (UniProt P24941), please?
Reply: 85

Ask: Recorded inhibition for O=S(=O)(Nc1ccc2[nH]nc(-c3ccccc3)c2c1)c1ccc2ccccc2c1 with CDK2 (UniProt P24941), please?
Reply: 78

Ask: Recorded inhibition for Cc1ccc(-c2n[nH]c3ccc(NS(=O)(=O)c4ccccc4S(C)(=O)=O)cc23)cc1C with CDK2 (UniProt P24941), please?
Reply: 75

Ask: Recorded inhibition for O=S(=O)(Nc1ccc2[nH]nc(-c3cc4ccccc4[nH]3)c2c1)c1ccccc1 with CDK2 (UniProt P24941), please?
Reply: 100

Ask: Recorded inhibition for CS(=O)(=O)c1ccccc1S(=O)(=O)Nc1ccc2[nH]nc(N)c2c1 with CDK2 (UniProt P24941), please?
Reply: 72

Ask: Recorded inhibition for CS(=O)(=O)c1ccccc1S(=O)(=O)Nc1ccc2[nH]nc(-c3cccc(Cl)c3)c2c1 with CDK2 (UniProt P24941), please?
Reply: 80

Ask: Recorded inhibition for CS(=O)(=O)c1ccccc1S(=O)(=O)Nc1ccc2[nH]nc(-c3ccc(F)cc3)c2c1 with CDK2 (UniProt P24941), please?
Reply: 94

Ask: Recorded inhibition for CCOc1ccc(-c2n[nH]c3ccc(NS(=O)(=O)c4ccccc4S(C)(=O)=O)cc23)cc1 with CDK2 (UniProt P24941), please?
Reply: 74

Ask: Recorded inhibition for CC(=O)Nc1n[nH]c2ccc(NS(=O)(=O)c3ccccc3S(C)(=O)=O)cc12 with CDK2 (UniProt P24941), please?
Reply: 96

Ask: Recorded inhibition for CS(=O)(=O)c1ccccc1S(=O)(=O)Nc1ccc2[nH]nc(/C=C/c3ccc(Cl)cc3)c2c1 with CDK2 (UniProt P24941), please?
Reply: 96

Ask: Recorded inhibition for O=S(=O)(Nc1ccc2[nH]nc(-c3ccccc3)c2c1)c1ccc(Cl)s1 with CDK2 (UniProt P24941), please?
Reply: 65

Ask: Recorded inhibition for CS(=O)(=O)c1ccccc1S(=O)(=O)Nc1ccc2[nH]nc(-c3ccc(-c4ccccc4)cc3)c2c1 with CDK2 (UniProt P24941), please?
Reply: 41

Ask: Recorded inhibition for CS(=O)(=O)c1ccccc1S(=O)(=O)Nc1ccc2[nH]nc(-c3cccc(C#N)c3)c2c1 with CDK2 (UniProt P24941), please?
Reply: 90

Ask: Recorded inhibition for O=C(NCc1ccc(S(=O)(=O)Nc2ccc3[nH]nc(-c4ccccc4)c3c2)s1)c1ccccc1 with CDK2 (UniProt P24941), please?
Reply: 40

Ask: Recorded inhibition for CS(=O)(=O)c1ccccc1S(=O)(=O)Nc1ccc2[nH]nc(/C=C/c3ccc(F)cc3)c2c1 with CDK2 (UniProt P24941), please?
Reply: 95

Ask: Recorded inhibition for CS(=O)(=O)c1ccccc1S(=O)(=O)Nc1ccc2[nH]nc(-c3cc(Cl)ccc3Cl)c2c1 with CDK2 (UniProt P24941), please?
Reply: 27

Ask: Recorded inhibition for Nc1n[nH]c2ccc(NS(=O)(=O)c3cccc(F)c3)cc12 with CDK2 (UniProt P24941), please?
Reply: 34

====

molecular target: CDK2 (UniProt P24941); assay: Enzyme Assay; settings: concentration not given here
result-type: inhibition

Ask: # inhibition lookup, item O=S(=O)(Nc1ccc2[nH]nc(-c3cc4ccccc4[nH]3)c2c1)c1ccccc1OC(F)(F)F
Reply: 94%

Ask: # inhibition lookup, item CS(=O)(=O)c1ccccc1S(=O)(=O)Nc1ccc2[nH]nc(-c3cccc(Br)c3)c2c1
Reply: 73%

Ask: # inhibition lookup, item COc1ccc(-c2n[nH]c3ccc(NS(=O)(=O)c4ccccc4S(C)(=O)=O)cc23)c(OC)c1
Reply: 27%

Ask: # inhibition lookup, item CCCCS(=O)(=O)Nc1ccc2[nH]nc(-c3ccccc3)c2c1
Reply: 30%

Ask: # inhibition lookup, item CC(=O)Nc1ccc(S(=O)(=O)Nc2ccc3[nH]nc(-c4ccccc4)c3c2)cc1
Reply: 73%

Ask: # inhibition lookup, item CS(=O)(=O)c1ccccc1S(=O)(=O)Nc1ccc2[nH]nc(-c3cccc(O)c3)c2c1
Reply: 73%

Ask: # inhibition lookup, item CC1(C)[C@H]2CC[C@]1(CS(=O)(=O)Nc1ccc3[nH]nc(-c4ccccc4)c3c1)C(=O)C2
Reply: 30%

Ask: # inhibition lookup, item CS(=O)(=O)c1ccc(S(=O)(=O)Nc2ccc3[nH]nc(-c4ccccc4)c3c2)cc1
Reply: 50%

Ask: # inhibition lookup, item CS(=O)(=O)c1ccc(F)cc1S(=O)(=O)Nc1ccc2[nH]nc(-c3ccccc3)c2c1
Reply: 87%

Ask: # inhibition lookup, item Cc1cc2[nH]nc(-c3ccccc3)c2cc1NS(=O)(=O)c1ccccc1S(C)(=O)=O
Reply: 62%

Ask: # inhibition lookup, item CS(=O)(=O)c1ccccc1S(=O)(=O)Nc1ccc2[nH]nc(-c3cccc4c3oc3ccccc34)c2c1
Reply: 13%

Ask: # inhibition lookup, item CS(=O)(=O)c1ccccc1S(=O)(=O)Nc1ccc2[nH]nc(-c3ccc(C#N)cc3)c2c1
Reply: 86%

Ask: # inhibition lookup, item CCOc1cccc(-c2n[nH]c3ccc(NS(=O)(=O)c4ccccc4S(C)(=O)=O)cc23)c1
Reply: 60%

Ask: # inhibition lookup, item CS(=O)(=O)c1ccccc1S(=O)(=O)Nc1ccc2[nH]nc(-c3ccc(-c4ccccc4)c(F)c3)c2c1
Reply: 0%

Ask: # inhibition lookup, item CS(=O)(=O)c1ccccc1S(=O)(=O)Nc1ccc2[nH]nc(-c3ccc(F)c(F)c3)c2c1
Reply: 72%

Ask: # inhibition lookup, item Cc1ccccc1-c1n[nH]c2ccc(NS(=O)(=O)c3ccccc3S(C)(=O)=O)cc12
Reply: 25%

Ask: # inhibition lookup, item CS(=O)(=O)c1ccccc1S(=O)(=O)Nc1ccc2[nH]nc(-c3cc(Cl)cc(Cl)c3)c2c1
Reply: 50%

Ask: # inhibition lookup, item CS(=O)(=O)c1ccccc1S(=O)(=O)Nc1ccc2[nH]nc(-c3ccc(Cl)cc3Cl)c2c1
Reply: 23%

Ask: # inhibition lookup, item Cc1ccc(-c2n[nH]c3ccc(NS(=O)(=O)c4ccccc4S(C)(=O)=O)cc23)cc1F
Reply: 70%

Ask: # inhibition lookup, item CS(=O)(=O)c1ccccc1S(=O)(=O)Nc1ccc2[nH]nc(-c3cccnc3)c2c1
Reply: 88%

Ask: # inhibition lookup, item Nc1n[nH]c2ccc(NS(=O)(=O)c3cc(F)cc(F)c3)cc12
Reply: 0%

Ask: # inhibition lookup, item CS(=O)(=O)c1ccccc1S(=O)(=O)Nc1ccc2[nH]nc(-c3ccc4c(c3)OCO4)c2c1
Reply: 76%

Ask: # inhibition lookup, item CN(C)c1cccc2c(S(=O)(=O)Nc3ccc4[nH]nc(-c5ccccc5)c4c3)cccc12
Reply: 84%

Ask: # inhibition lookup, item CS(=O)(=O)c1ccccc1S(=O)(=O)Nc1ccc2[nH]nc(-c3ccc(I)cc3)c2c1
Reply: 20%

Ask: # inhibition lookup, item O=S(=O)(Nc1ccc2[nH]nc(-c3ccccc3)c2c1)c1ccccc1C(F)(F)F
Reply: 81%

Ask: # inhibition lookup, item CS(=O)(=O)c1ccccc1S(=O)(=O)Nc1ccc2[nH]nc(NC(=O)c3ccccc3)c2c1
Reply: 95%

Ask: # inhibition lookup, item C=Cc1ccc(-c2n[nH]c3ccc(NS(=O)(=O)c4ccccc4S(C)(=O)=O)cc23)cc1
Reply: 77%

Ask: # inhibition lookup, item CS(=O)(=O)c1ccccc1S(=O)(=O)Nc1ccc2[nH]nc(-c3ccc(Oc4ccccc4)cc3)c2c1
Reply: 20%

Ask: # inhibition lookup, item CS(=O)(=O)c1ccccc1S(=O)(=O)Nc1ccc2[nH]nc(-c3cccc(OC(F)(F)F)c3)c2c1
Reply: 60%

Ask: # inhibition lookup, item CS(=O)(=O)c1ccccc1S(=O)(=O)Nc1ccc2[nH]nc(-c3ccccc3-c3ccccc3)c2c1
Reply: 27%

Ask: # inhibition lookup, item CS(=O)(=O)c1ccccc1S(=O)(=O)Nc1ccc2[nH]nc(-c3cccc(OCc4ccccc4)c3)c2c1
Reply: 0%

Ask: # inhibition lookup, item Nc1n[nH]c2ccc(NS(=O)(=O)c3c(Cl)cccc3Cl)cc12
Reply: 18%

Ask: # inhibition lookup, item O=S(=O)(Nc1ccc2[nH]nc(-c3ccccc3)c2c1)c1ccccc1OC(F)(F)F
Reply: 74%

Ask: # inhibition lookup, item CS(=O)(=O)c1ccccc1S(=O)(=O)Nc1ccc2[nH]nc(-c3ccc(F)c(Cl)c3)c2c1
Reply: 77%

Ask: # inhibition lookup, item CS(=O)(=O)c1ccccc1S(=O)(=O)Nc1ccc2[nH]nc(-c3ccccc3F)c2c1
Reply: 61%

Ask: # inhibition lookup, item COc1cccc(-c2n[nH]c3ccc(NS(=O)(=O)c4ccccc4S(C)(=O)=O)cc23)c1
Reply: 67%
